Tested on: HEK-293 cells
Assay: HEK-293 cytotoxicity detection (CellTiter-Glo)
Format: cell-based
Settings: Homo sapiens, 72 h, 72 h incubation, CellTiter-Glo luminescence, read-out: HEK293
Would you kindly list IC50 for each of these molecules?

Example results:
molecule="Cc1c(C(=O)Nc2ccn(C)n2)ccc(-c2nn3c(c2C(N)=O)Nc2ccc(N4CCN(CC5CCN(c6ccc(N7CCC(=O)NC7=O)cc6)CC5)CC4)cc2CC3)c1F [Example B82]" readout_kind=IC50 result="> 10 µM"
molecule="NC(=O)c1c(-c2cc(F)c(C(=O)Nc3cc(C(F)(F)F)ccn3)c(F)c2)nn2c1Nc1ccc(N3CCN(CC4CCN(c5ccc(N6CCC(=O)NC6=O)cc5)CC4)CC3)cc1CC2 [Example B14]" readout_kind=IC50 result="0.0754 µM"
molecule="Cc1cc(-c2nn3c(c2C(N)=O)Nc2ccc(N4CCN(CC5CCN(c6ccc(N7CCC(=O)NC7=O)cc6)CC5)CC4)cc2CC3)ccc1CNC(=O)c1nc(C(C)(C)C)no1 [Example C8]" readout_kind=IC50 result="> 10 µM"
molecule="NC(=O)c1c(-c2ccc(C(=O)Nc3cccc(C(F)(F)F)n3)cc2)nn2c1Nc1ccc(N3CCN(CC4CCN(c5ccc(N6CCC(=O)NC6=O)cc5)CC4)CC3)cc1CC2 [Example B16]" readout_kind=IC50 result="0.232 µM"
molecule="COc1ccccc1C(=O)NCc1ccc(-c2nn3c(c2C(N)=O)Nc2ccc(N4CCN(CC5CCN(c6ccc(N7CCC(=O)NC7=O)cc6)CC5)CC4)cc2CC3)c(OC)c1 [Example C44]" readout_kind=IC50 result="0.642 µM"

Record IC50 per entry; entries follow.
1. Cc1c(C(=O)Nc2cn(C)cn2)ccc(-c2nn3c(c2C(N)=O)Nc2ccc(N4CCN(CC5CCN(c6ccc(N7CCC(=O)NC7=O)cc6)CC5)CC4)cc2CC3)c1F [Example B87]
2. Cc1cccc(NC(=O)c2ccc(-c3nn4c(c3C(N)=O)Nc3ccc(N5CCN(CC6CCN(c7ccc(N8CCC(=O)N(CC(=O)OC(C)(C)C)C8=O)cc7)CC6)CC5)cc3CC4)c(F)c2C)n1 [Example B76]
3. NC(=O)c1c(-c2ccc(C3(Nc4cc(C(F)(F)F)ccn4)CC3)cc2)nn2c1Nc1ccc(N3CCN(CC4CCN(c5ccc(N6CCC(=O)NC6=O)cc5)CC4)CC3)cc1CC2 [Example C16]
4. Cc1cccc(NC(=O)c2ccc(-c3nn4c(c3C(N)=O)Nc3ccc(N5CCN(CC6CCN(c7ccc(N8CCC(=O)NC8=O)c(C)c7)CC6)CC5)cc3CC4)c(F)c2C)n1 [Example B54]
5. CCc1cccc(NC(=O)c2ccc(-c3nn4c(c3C(N)=O)Nc3ccc(N5CCN(CC6CCN(c7ccc(N8CCC(=O)NC8=O)cc7)CC6)CC5)cc3CC4)c(F)c2C)n1 [Example B41]
6. Cc1c(C(=O)Nc2cn(C)cn2)ccc(-c2nn3c(c2C(N)=O)Nc2ccc(N4CCN(CCc5cc(F)c([C@H]6CCC(=O)NC6=O)c(F)c5)CC4)cc2CC3)c1F [Example B89]

1. > 10 µM
2. > 10 µM
3. > 10 µM
4. > 10 µM
5. > 10 µM
6. > 10 µM

* * *

Hi there, I'd appreciate the recorded pIC50 for every entry that follows.
Test system: HEK-293 cells
Test: HEK-293 cytotoxicity detection (CellTiter-Glo)
Format: cell-based
Conditions: Homo sapiens, 72 h, 72 h incubation, CellTiter-Glo luminescence, read-out: HEK293
pIC50: −log10 of the molar value.

The cases that follow already have their pIC50 on record.
compound="NC(=O)c1c(-c2ccc(Oc3ccccc3)cc2)nn2c1Nc1ccc(NC(=O)C3CCN(c4ccc5c(c4)C(=O)N(C4CCC(=O)NC4=O)C5=O)CC3)cc1CC2 (centres unmarked)" result=6.38
compound=COc1cccc(OC)c1C(=O)NCc1ccc(-c2nn3c(c2C(N)=O)Nc2ccc(N4CCN(CC5CCN(c6ccc(N7CCC(=O)NC7=O)cc6)CC5)CC4)cc2CC3)cc1 result="< 5.00"
compound="Cc1cccc(NC(=O)c2ccc(-c3nn4c(c3C(N)=O)Nc3ccc(N5CCN(Cc6ccc7c(c6)C(C)(C)C(=O)N7C6CCC(=O)NC6=O)CC5)cc3CC4)c(F)c2C)n1 (centres unmarked)" result="< 5.00"
compound=Cc1cccc(N(COC(=O)C(C)(C)C)C(=O)c2ccc(-c3nn4c(c3C(N)=O)Nc3ccc(N5CCN(CC6CCN(c7ccc(N8CCC(=O)N(COC(=O)C(C)(C)C)C8=O)cc7)CC6)CC5)cc3CC4)c(F)c2C)n1 result="< 5.00"

Let us move to another entry and its pIC50.
Entry NC(=O)c1c(-c2ccc(C(=O)Nc3cc(C(F)(F)F)ccn3)cc2Cl)nn2c1Nc1ccc(N3CCN(CC4CCN(c5ccc(N6CCC(=O)NC6=O)cc5)CC4)CC3)cc1CC2 , pIC50 reported as < 5.00

* * *

Biological target: BTK (Homo sapiens, UniProt Q06187)
Sequence (Q06187 whole entry): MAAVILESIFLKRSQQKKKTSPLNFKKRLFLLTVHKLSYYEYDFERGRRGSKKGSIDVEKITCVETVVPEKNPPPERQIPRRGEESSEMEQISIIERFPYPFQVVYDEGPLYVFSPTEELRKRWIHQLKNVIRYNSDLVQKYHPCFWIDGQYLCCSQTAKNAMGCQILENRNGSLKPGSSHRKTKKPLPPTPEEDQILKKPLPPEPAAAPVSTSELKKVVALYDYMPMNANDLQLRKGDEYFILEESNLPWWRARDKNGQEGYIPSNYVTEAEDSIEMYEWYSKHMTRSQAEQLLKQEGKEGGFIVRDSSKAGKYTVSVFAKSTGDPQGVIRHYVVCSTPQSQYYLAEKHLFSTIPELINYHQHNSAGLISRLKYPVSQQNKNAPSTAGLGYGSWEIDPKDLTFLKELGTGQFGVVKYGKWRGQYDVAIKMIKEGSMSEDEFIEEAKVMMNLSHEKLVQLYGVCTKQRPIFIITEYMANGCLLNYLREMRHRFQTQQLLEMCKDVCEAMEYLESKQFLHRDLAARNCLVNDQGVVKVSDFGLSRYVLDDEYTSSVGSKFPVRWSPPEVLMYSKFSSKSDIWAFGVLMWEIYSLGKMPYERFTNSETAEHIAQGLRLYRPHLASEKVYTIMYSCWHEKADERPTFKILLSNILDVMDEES
Assay: BTK cell degradation in TMD-8 cells, HTRF assay
Assay type: cell-based
Design: endogenous in cells; host or cells: TMD-8 cells
Details: 6 h treatment, IC50 (DC50) of BTK degradation
Would you kindly list DC50 for each of these compounds?
Numbers only, in nM.

// worked examples, DC50 included
entry_smiles=COc1ccc(C(=O)NCc2ccc(-c3nn4c(c3C(N)=O)Nc3ccc(N5CCN(CC6CCN(c7ccc(N8CCC(=O)NC8=O)cc7)CC6)CC5)cc3CC4)cc2)c(OC)c1 readout_kind=DC50 number=2
entry_smiles=Cc1c(-c2nc(-c3ccccn3)no2)ccc(-c2nn3c(c2C(N)=O)Nc2ccc(N4CCN(CC5CCN(c6ccc(N7CCC(=O)NC7=O)cc6)CC5)CC4)cc2CC3)c1F readout_kind=DC50 number=15

// below: DC50 requested for another compound
Per the record, COc1cccc(OC)c1C(=O)NCc1ccc(-c2nn3c(c2C(N)=O)Nc2ccc(N4CCN(CC5CCN(c6ccc(N7CCC(=O)NC7=O)cc6)CC5)CC4)cc2CC3)cc1 has DC50 of 2.12

* * *

Target: BTK (Homo sapiens)
Assay: BTK cell degradation in TMD-8 cells, HTRF assay
Assay type: cell-based
Design: endogenous in cells; host or cells: TMD-8 cells
Conditions: 6 h treatment, IC50 (DC50) of BTK degradation
readout-kind: DC50 (nM)
Numbers only, in nM.

// below: answered compounds
compound="COc1ccc2ccccc2c1C(=O)NCc1ccc(-c2nn3c(c2C(N)=O)Nc2ccc(N4CCN(CC5CCN(c6ccc(N7CCC(=O)NC7=O)cc6)CC5)CC4)cc2CC3)cc1 [Example C4]" number=0.282
compound="CCc1cccc(NC(=O)c2ccc(-c3nn4c(c3C(N)=O)Nc3ccc(N5CCN(CC6CCN(c7ccc(N8CCC(=O)NC8=O)cc7)CC6)CC5)cc3CC4)c(F)c2C)n1 [Example B41]" number=9.26
compound="Cc1nc(NC(=O)c2ccc(-c3nn4c(c3C(N)=O)Nc3ccc(N5CCN(CC6CCN(c7ccc(N8CCC(=O)NC8=O)cc7)CC6)CC5)nc3CC4)c(F)c2C)ccc1Cl [Example B52]" number=4.06

// next entry
The reported value for NC(=O)c1c(-c2ccc(C(=O)Nc3cc(C(F)(F)F)ccn3)c(Cl)c2)nn2c1Nc1ccc(N3CCN(CC4CCN(c5ccc(N6CCC(=O)NC6=O)cc5)CC4)CC3)cc1CC2 [Example B26] in terms of DC50 is 0.928

* * *

Target: BTK (Homo sapiens)
Assay: BTK cell degradation in TMD-8 cells, HTRF assay
Assay type: cell-based
Design: endogenous in cells; host or cells: TMD-8 cells
Details: 6 h treatment, IC50 (DC50) of BTK degradation
So I've got a bunch of compounds here, and I need their DC50 values.
One number for each entry, in µM.

compound=Cc1cccc(NC(=O)c2cnc(-c3nn4c(c3C(N)=O)Nc3ccc(N5CCN(CC6CCN(c7ccc(N8CCC(=O)NC8=O)cc7)CC6)CC5)cc3CC4)cc2C)n1 study_system="BTK (Homo sapiens)" readout_kind=DC50 uom=µM number=0.0472
compound="NC(=O)c1c(-c2ccc(Oc3ccccc3)cc2)nn2c1Nc1cc(C3CCN(CCc4ccc(C5CCC(=O)NC5=O)cc4)CC3)ccc1CC2 (stereo not drawn)" study_system="BTK (Homo sapiens)" readout_kind=DC50 uom=µM number=0.0119

# ---- query compound ----
GET /value?item= Cc1ccnc(NC(=O)c2ccc(-c3nn4c(c3C(N)=O)Nc3ccc(N5CCN(CC6CCN(c7ccc(N8CCC(=O)NC8=O)cc7)CC6)CC5)cc3CC4)c(F)c2C)n1 &field=DC50 returns 0.000543

* * *

Biological target: BTK (Homo sapiens)
Assay: BTK cell degradation in TMD-8 cells, HTRF assay
Format: cell-based
Set-up: endogenous in cells; host or cells: TMD-8 cells
Details: 6 h treatment, IC50 (DC50) of BTK degradation
Rule for this label: Criterion met means DC50 is less than 2 nM; Criterion not met means DC50 is at least 2 nM.

Below are worked cases with known answers.
compound=COc1ccc(Cl)cc1C(=O)NCc1ccc(-c2nn3c(c2C(N)=O)Nc2ccc(N4CCN(CC5CCN(c6ccc(N7CCC(=O)NC7=O)cc6)CC5)CC4)cc2CC3)cc1C class_label="Criterion not met"
compound=Cc1c(C(=O)Nc2cscn2)ccc(-c2nn3c(c2C(N)=O)Nc2ccc(N4CCN(CC5CCN(c6ccc(CN7CCC(=O)NC7=O)cc6)CC5)CC4)cc2CC3)c1F class_label="Criterion met"
compound=Cc1cc(C(F)(F)F)cc(NC(=O)c2ccc(-c3nn4c(c3C(N)=O)Nc3ccc(N5CCN(CC6CCN(c7ccc(N8CCC(=O)NC8=O)cc7)CC6)CC5)cc3CC4)c(F)c2C)n1 class_label="Criterion not met"
compound=Cc1c(C(=O)Nc2cscn2)ccc(-c2nn3c(c2C(N)=O)Nc2ccc(N4CCN(C(=O)C5CCN(c6ccc(N7CCC(=O)NC7=O)cc6)CC5)CC4)cc2CC3)c1F class_label="Criterion met"
compound=NC(=O)c1c(-c2ccc(C(=O)Nc3ccccn3)cc2)nn2c1Nc1ccc(N3CCN(CC4CCN(c5ccc(N6CCC(=O)NC6=O)cc5)CC4)CC3)cc1CC2 class_label="Criterion met"

is_below(DC50, 2 nM) for Cc1c(C(=O)Nc2cn(C)cn2)ccc(-c2nn3c(c2C(N)=O)Nc2ccc(N4CCN(C(=O)C5CCN(c6ccc(N7CCC(=O)NC7=O)cc6)CC5)CC4)cc2CC3)c1F ?
Criterion met

Item Cc1c(C(=O)Nc2cccc(-c3ccccc3)n2)ccc(-c2nn3c(c2C(N)=O)Nc2ccc(N4CCN(CC5CCN(c6ccc(N7CCC(=O)NC7=O)cc6)CC5)CC4)cc2CC3)c1F : DC50 beneath 2 nM, strictly?
Criterion not met

Find out if reported DC50 for Cc1c(C(=O)Nc2ccn(C)n2)ccc(-c2nn3c(c2C(N)=O)Nc2ccc(N4CCN(CC5CCN(c6ccc(N7CCC(=O)NC7=O)cc6)CC5)CC4)cc2CC3)c1F is less than 2 nM
Criterion not met

Say whether its DC50 is strictly beneath 2 nM. Entry: NC(=O)c1c(-c2ccc(Oc3ccccc3)cc2)nn2c1Nc1ccc(NC3CCN(CC4CCN(c5cc6c(cc5F)C(=O)N(C5CCC(=O)NC5=O)C6=O)CC4)CC3)cc1CC2 (stereo not drawn)
Criterion met

Say whether its DC50 is strictly beneath 2 nM. Entry: Cc1cccc(NC(=O)c2ncc(-c3nn4c(c3C#N)Nc3ccc(N5CCN(CC6CCN(c7ccc(N8CCC(=O)NC8=O)cc7)CC6)CC5)cc3CC4)cc2C)n1
Criterion not met

Cited source: patent US20240246977A1
